Quick reference for IC50 among some compounds
molecular target: human 11β-HSD1 (Homo sapiens (Human), UniProt P28845); test: HTRF cortisol assay in 11β-HSD1 overexpressing CHO cells; format: cell-based; conditions: human 11β-HSD1 overexpressing CHO cells, 160 nM cortisone, 3 hr at 37° C., read-out: IC50(nM) to 11β-HSD-1
Sequence (P28845 whole entry): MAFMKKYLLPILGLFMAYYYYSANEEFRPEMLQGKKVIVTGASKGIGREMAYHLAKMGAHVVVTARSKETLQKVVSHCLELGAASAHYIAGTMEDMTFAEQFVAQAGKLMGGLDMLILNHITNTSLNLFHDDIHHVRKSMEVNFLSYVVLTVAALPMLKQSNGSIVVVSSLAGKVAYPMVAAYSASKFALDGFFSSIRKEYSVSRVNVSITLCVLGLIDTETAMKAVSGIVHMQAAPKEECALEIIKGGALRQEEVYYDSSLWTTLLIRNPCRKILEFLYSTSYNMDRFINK
Report only the number, with the unit nM understood.

> print(dat)
                                   compound  readout.unit  readout.number
1  NC(=O)C12CC3CC(C1)C(NC(=O)CN1CCCN(c4ccc(F)cc4)S1(=O)=O)C(C3)C2 (stereo not drawn) [Compound 44]            nM              79

// next entry
Query: For the compound CC1CCN(c2c(Cl)cc(Cl)cc2Cl)S(=O)(=O)N1CC(=O)NC1C2CC3CC1CC(C(N)=O)(C3)C2 (stereo not drawn) [Compound 128] , what IC50 is on record?
Result: 0.1
